# EXPERIMENTAL_SYSTEM: Adenosine receptor A2a (Homo sapiens, UniProt P29274)
# Sequence (P29274 whole entry): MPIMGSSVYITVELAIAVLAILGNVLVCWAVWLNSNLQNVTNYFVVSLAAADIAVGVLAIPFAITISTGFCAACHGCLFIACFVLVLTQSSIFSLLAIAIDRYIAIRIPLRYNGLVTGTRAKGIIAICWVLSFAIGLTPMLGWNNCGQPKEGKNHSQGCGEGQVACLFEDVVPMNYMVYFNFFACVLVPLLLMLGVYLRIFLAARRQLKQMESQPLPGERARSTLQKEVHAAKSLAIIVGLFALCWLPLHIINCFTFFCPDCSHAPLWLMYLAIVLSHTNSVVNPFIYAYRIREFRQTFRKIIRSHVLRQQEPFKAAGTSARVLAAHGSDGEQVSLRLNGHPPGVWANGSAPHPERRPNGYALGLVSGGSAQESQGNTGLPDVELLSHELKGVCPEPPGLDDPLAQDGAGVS
# PROCEDURE_TEXT: Displacement of [3H]CGS21680 from human adenosine A2A receptor in HEK293 cells at 10 uM
QUANTITY_KIND: Activity (%)

stdin: Lab note: need Activity for COc1ccc(CNc2[nH]c3ccccc3c3nc(C4CCCC4)nc2-3)cc1 on Adenosine receptor A2a (Homo sapiens, UniProt P29274), anyone have it?
stdout: 60

a: COc1ccc(Nc2nc3ccccc3c3nc(C4CCCC4)[nH]c23)cc1
b: CCCCCc1nc2c(Nc3ccc(Cl)c(Cl)c3)[nH]c3ccccc3c-2n1
stdin: Between the two listed entries a and b , which has its Activity at the higher number? The response must carry the label of the picked entry.
stdout: a
(a: 16%, b: -1%)

A: c1ccc2c3nc(C4CCCC4)nc-3c(Nc3ccc4c[nH]nc4c3)[nH]c2c1
B: Clc1ccc(Nc2nc3ccccc3c3[nH]c(C4CCCC4)nc23)cc1
stdin: Kindly compare A with B and tell me which has the lower Activity figure. Reply briefly: the label of your chosen item.
stdout: B
(B: 17%, A: 68%)

The measurements presented in this section are drawn from ChEMBL document CHEMBL1148506.
